The measurements presented in this section are drawn from the NIST ThermoML archive (doi:10.1016/j.jct.2015.05.014).

- Protocol: activity coefficient (dimensionless); of the first substance listed, at infinite dilution; xn = mol fraction of the nth substance listed
- Experimental Conditions: 358.15 K; 100 kPa; Liquid; Chromatography; x1 = 0
Quantity Measured: activity coefficient

>>> print(df.to_string())
                                   molecule     quantity_measured  value_reported
0  CCC(=O)CC [pentan-3-one] + CC(O)C(=O)[O-].CC[N+]1(C)CCCC1  activity coefficient            5.22
1  CCOCC [diethyl ether] + CC(O)C(=O)[O-].CC[N+]1(C)CCCC1  activity coefficient            15.1
2  CC(C)=O [acetone] + CC(O)C(=O)[O-].CC[N+]1(C)CCCC1  activity coefficient            2.14
3  Cc1ccccc1 [toluene] + CC(O)C(=O)[O-].CC[N+]1(C)CCCC1  activity coefficient            5.89

* * *

- Protocol: activity coefficient (dimensionless); of the first substance listed, at infinite dilution; xn = mol fraction of the nth substance listed
- Experimental Conditions: 338.15 K; 100 kPa; Liquid; Chromatography; x1 = 0
Catalogue of compounds with associated activity coefficient
Quantity Measured: activity coefficient

                                    compound  value_reported
 0  CCCCCCCC [octane] + CC(O)C(=O)[O-].CC[N+]1(C)CCCC1             254
 1  CC(C)CC(C)(C)C [2,2,4-trimethylpentane] + CC(O)C(=O)[O-].CC[N+]1(C)CCCC1             201
 2  CCCCC(C)=O [2-hexanone] + CC(O)C(=O)[O-].CC[N+]1(C)CCCC1            7.22
 3  CCC(=O)CC [pentan-3-one] + CC(O)C(=O)[O-].CC[N+]1(C)CCCC1            5.05
 4  CCC(=O)OC [methyl propanoate] + CC(O)C(=O)[O-].CC[N+]1(C)CCCC1            4.88
 5  c1ccsc1 [thiophene] + CC(O)C(=O)[O-].CC[N+]1(C)CCCC1            1.47
 6  Cc1cccc(C)c1 [1,3-dimethylbenzene] + CC(O)C(=O)[O-].CC[N+]1(C)CCCC1            10.4
 7  C=CCCCC [hex-1-ene] + CC(O)C(=O)[O-].CC[N+]1(C)CCCC1            48.7
 8  CCC[N+](=O)[O-] [1-nitropropane] + CC(O)C(=O)[O-].CC[N+]1(C)CCCC1            1.86
 9  C1CCCC1 [cyclopentane] + CC(O)C(=O)[O-].CC[N+]1(C)CCCC1            26.9
10  CCCC(=O)CC [3-hexanone] + CC(O)C(=O)[O-].CC[N+]1(C)CCCC1            8.12
11  C1CCOC1 [tetrahydrofuran] + CC(O)C(=O)[O-].CC[N+]1(C)CCCC1            3.62
12  CC#N [acetonitrile] + CC(O)C(=O)[O-].CC[N+]1(C)CCCC1           0.844
13  C1CCCCCC1 [cycloheptane] + CC(O)C(=O)[O-].CC[N+]1(C)CCCC1              57
14  CC(C)=O [acetone] + CC(O)C(=O)[O-].CC[N+]1(C)CCCC1            2.03
15  CCCOCCC [dipropyl ether] + CC(O)C(=O)[O-].CC[N+]1(C)CCCC1            46.2
16  CCOCC [diethyl ether] + CC(O)C(=O)[O-].CC[N+]1(C)CCCC1            15.1
17  CC1CCCCC1 [methylcyclohexane] + CC(O)C(=O)[O-].CC[N+]1(C)CCCC1            69.7
18  CCCCCCC [heptane] + CC(O)C(=O)[O-].CC[N+]1(C)CCCC1             167
19  CCCC(C)=O [pentan-2-one] + CC(O)C(=O)[O-].CC[N+]1(C)CCCC1            4.85
20  C1CCCCC1 [cyclohexane] + CC(O)C(=O)[O-].CC[N+]1(C)CCCC1            42.6
21  COC(C)(C)C [2-methoxy-2-methylpropane] + CC(O)C(=O)[O-].CC[N+]1(C)CCCC1            17.9
22  c1ccncc1 [pyridine] + CC(O)C(=O)[O-].CC[N+]1(C)CCCC1            1.36

* * *

- Protocol: activity coefficient (dimensionless); of the first substance listed, at infinite dilution; xn = mol fraction of the nth substance listed
- Experimental Conditions: 368.15 K; 100 kPa; Liquid; Chromatography; x1 = 0
Listed below: activity coefficient values for each entry.
Quantity Measured: activity coefficient

>>> df
                                    molecule     quantity_measured  value_reported
 0  CCC(C)CC [3-methylpentane] + CC(O)C(=O)[O-].CC[N+]1(C)CCCC1  activity coefficient            78.4
 1  c1ccncc1 [pyridine] + CC(O)C(=O)[O-].CC[N+]1(C)CCCC1  activity coefficient            1.53
 2  c1ccccc1 [benzene] + CC(O)C(=O)[O-].CC[N+]1(C)CCCC1  activity coefficient            3.36
 3  C=CCCCC [hex-1-ene] + CC(O)C(=O)[O-].CC[N+]1(C)CCCC1  activity coefficient            42.9
 4  C1CCCCCCC1 [cyclooctane] + CC(O)C(=O)[O-].CC[N+]1(C)CCCC1  activity coefficient            63.9
 5  CC(C)CC(C)(C)C [2,2,4-trimethylpentane] + CC(O)C(=O)[O-].CC[N+]1(C)CCCC1  activity coefficient             161
 6  CCCC(C)=O [pentan-2-one] + CC(O)C(=O)[O-].CC[N+]1(C)CCCC1  activity coefficient            5.14
 7  CCCC(=O)OC [methyl butanoate] + CC(O)C(=O)[O-].CC[N+]1(C)CCCC1  activity coefficient            8.01
 8  Cc1cccc(C)c1 [1,3-dimethylbenzene] + CC(O)C(=O)[O-].CC[N+]1(C)CCCC1  activity coefficient            10.7
 9  CO [methanol] + CC(O)C(=O)[O-].CC[N+]1(C)CCCC1  activity coefficient           0.095
10  CCC(=O)OC [methyl propanoate] + CC(O)C(=O)[O-].CC[N+]1(C)CCCC1  activity coefficient            5.22
11  CCOC(C)(C)C [2-ethoxy-2-methylpropane] + CC(O)C(=O)[O-].CC[N+]1(C)CCCC1  activity coefficient            39.7
12  CC#N [acetonitrile] + CC(O)C(=O)[O-].CC[N+]1(C)CCCC1  activity coefficient           0.962
13  C1COCCO1 [1,4-dioxane] + CC(O)C(=O)[O-].CC[N+]1(C)CCCC1  activity coefficient            2.65
14  CCCCCCCC [octane] + CC(O)C(=O)[O-].CC[N+]1(C)CCCC1  activity coefficient             200
15  C=CCCCCCC [oct-1-ene] + CC(O)C(=O)[O-].CC[N+]1(C)CCCC1  activity coefficient             103
16  COC(C)(C)C [2-methoxy-2-methylpropane] + CC(O)C(=O)[O-].CC[N+]1(C)CCCC1  activity coefficient            17.7
17  C#CCCC [1-pentyne] + CC(O)C(=O)[O-].CC[N+]1(C)CCCC1  activity coefficient            4.69
18  CCCCCCCCCC [decane] + CC(O)C(=O)[O-].CC[N+]1(C)CCCC1  activity coefficient             456
19  CCO [ethanol] + CC(O)C(=O)[O-].CC[N+]1(C)CCCC1  activity coefficient           0.187
20  CCCO [propan-1-ol] + CC(O)C(=O)[O-].CC[N+]1(C)CCCC1  activity coefficient           0.256
21  CCCOCCC [dipropyl ether] + CC(O)C(=O)[O-].CC[N+]1(C)CCCC1  activity coefficient            41.9
22  C1CCCC1 [cyclopentane] + CC(O)C(=O)[O-].CC[N+]1(C)CCCC1  activity coefficient            23.5
23  CC1CCCCC1 [methylcyclohexane] + CC(O)C(=O)[O-].CC[N+]1(C)CCCC1  activity coefficient            57.8
24  Cc1ccccc1 [toluene] + CC(O)C(=O)[O-].CC[N+]1(C)CCCC1  activity coefficient            6.06
25  Cc1ccccc1C [1,2-dimethylbenzene] + CC(O)C(=O)[O-].CC[N+]1(C)CCCC1  activity coefficient             8.9
26  CCC[N+](=O)[O-] [1-nitropropane] + CC(O)C(=O)[O-].CC[N+]1(C)CCCC1  activity coefficient            2.06
27  CCOCC [diethyl ether] + CC(O)C(=O)[O-].CC[N+]1(C)CCCC1  activity coefficient            14.9
